The origin of these recorded values is patent US20180185504A1.

- Assay System: T1, mfPRLR.mmh (soluble monomeric macaca fascicularis PRLR) (macaca fascicularis)
- T1 construct: soluble monomeric PRLR protein; also called macaca fascicularis (mf) PRLR.mmh; monkey PRLR
- T1 chain: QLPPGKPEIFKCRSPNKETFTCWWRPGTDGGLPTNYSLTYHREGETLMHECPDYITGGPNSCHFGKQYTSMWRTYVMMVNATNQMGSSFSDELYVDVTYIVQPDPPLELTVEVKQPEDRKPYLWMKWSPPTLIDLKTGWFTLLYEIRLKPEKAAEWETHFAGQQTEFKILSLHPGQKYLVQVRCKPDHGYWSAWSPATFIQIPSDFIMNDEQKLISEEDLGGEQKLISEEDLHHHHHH
- Assay Method Text: SPR (Biacore), antibody capture, 37 C
Parameter: kon (M⁻¹ s⁻¹)
Supply the numeric figure in M⁻¹ s⁻¹, leaving out any unit text.

H1H6774P (antibody, human IgG1, V domains shown, human IgG1 Fc (H1H)) VH: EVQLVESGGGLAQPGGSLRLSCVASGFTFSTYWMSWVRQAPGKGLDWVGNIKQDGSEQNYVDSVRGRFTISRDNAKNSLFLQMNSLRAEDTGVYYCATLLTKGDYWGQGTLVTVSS VL: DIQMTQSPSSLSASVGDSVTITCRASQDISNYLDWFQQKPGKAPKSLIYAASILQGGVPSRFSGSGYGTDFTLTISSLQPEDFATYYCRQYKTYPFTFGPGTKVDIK = 723000

Continue with the next binder.
Measured kon of H1H6782P (antibody, human IgG1, V domains shown, human IgG1 Fc (H1H)) VH: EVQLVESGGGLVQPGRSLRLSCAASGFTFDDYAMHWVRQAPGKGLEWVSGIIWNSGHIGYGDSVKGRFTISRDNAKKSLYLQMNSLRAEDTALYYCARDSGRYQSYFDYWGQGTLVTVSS VL: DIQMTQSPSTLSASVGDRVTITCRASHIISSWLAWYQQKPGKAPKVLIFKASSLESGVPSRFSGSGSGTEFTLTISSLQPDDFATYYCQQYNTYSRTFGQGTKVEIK : 385000
